Source of measurements: ChEMBL document CHEMBL4689842

Attribute: Total Cell Count
# Tested on: HEK-293T
# Assay Text: Multiplex assay against HEK293T
# Assay type: toxicity, cell-based
# Condition Parameters: human, 12 h, 1 µM, compound concentration 1 uM, replicate 2

- Structure String: "CN(C)CCOc1ccc(-c2nc(-c3ccncc3)c(-c3ccc4c(c3)CC/C4=N\\O)[nH]2)cc1"
  System Under Test: "HEK-293T"
  Total Cell Count: 1120
- Structure String: "Nc1ccc(C(=O)Nc2cccc(-c3nc(N4CCOCC4)c4oc5ncccc5c4n3)c2)cn1"
  System Under Test: "HEK-293T"
  Total Cell Count: 149
- Structure String: "CCOc1cc(N2CCC(O)CC2)ccc1Nc1ncc2c(n1)N(C1CCCC1)CCC(=O)N2C"
  System Under Test: "HEK-293T"
  Total Cell Count: 1724
- Structure String: "Cl.Cl.Nc1ncnc2c1c(-c1cccc(OCc3ccccc3)c1)cn2[C@H]1C[C@@H](CN2CCC2)C1"
  System Under Test: "HEK-293T"
  Total Cell Count: 199
- Structure String: "CC(C)(C)c1cnc(CSc2cnc(NC(=O)C3CCNCC3)s2)o1"
  System Under Test: "HEK-293T"
  Total Cell Count: 981

====

# System: Fibroblast
# Assay Text: Multiplex assay against human fibroblast
# Format: toxicity, cell-based
# Condition Parameters: 12 h, 10 µM, compound concentration 10 uM, replicate 2
Experimental Endpoint: Population Fragmented Nuclei (%)

- Molecule: "Cc1cc2c(cc1N1C(=O)c3cccc4c(CCCO)ccc(c34)C1=O)n(C)c(=O)n2C"
  Measured Result: "20%"
- Molecule: "COc1cc2c(Nc3ccc(NC(=O)c4ccccc4)cc3)ncnc2cc1OCCCN1CCOCC1"
  Measured Result: "70%"
- Molecule: "Cc1nc(Cc2cccc(C(F)(F)F)c2)sc1-c1ccc(C(N)=O)nc1 [TP-024n]"
  Measured Result: "17%"
- Molecule: "Nc1ccc(C(=O)Nc2cccc(-c3nc(N4CCOCC4)c4oc5ncccc5c4n3)c2)cn1"
  Measured Result: "62%"
- Molecule: "c1ccc2oc(-c3csc(C4CCN(Cc5nc6ncccc6[nH]5)CC4)n3)cc2c1"
  Measured Result: "65%"
- Molecule: "Cc1cn(-c2cc(NC(=O)c3ccc4c(c3)CN(c3cncnc3)C[C@@H]4C)cc(C(F)(F)F)c2)cn1"
  Measured Result: "67%"

====

# Tested on: U2OS
# Assay Text: Multiplex assay against U2OS
# Type: toxicity, cell-based
# Condition Parameters: human, 24 h, 1 µM, compound concentration 1 uM, replicate 2
Label scheme for Population Pyknosed Nuclei (%): lower than 5% is no (0), 5% and above is yes (1).

- Molecule: "CCCn1c(=O)c2[nH]c(C34CC5CC(CC3C5)C4)nc2n(CCC)c1=O [ROLOFYLLINE]"
  System Under Test: "U2OS"
  Assigned Label: "no (0)"
- Molecule: "Nc1ccc(C(=O)Nc2cccc(-c3nc(N4CCOCC4)c4oc5ncccc5c4n3)c2)cn1"
  System Under Test: "U2OS"
  Assigned Label: "yes (1)"
- Molecule: "CNC(=O)c1cc(Oc2ccc(NC(=O)Nc3cc(C(C)(C)C)nn3-c3ccc4ncccc4c3)c(F)c2)ccn1 [REBASTINIB]"
  System Under Test: "U2OS"
  Assigned Label: "yes (1)"
- Molecule: "Cl.Cl.NC1(c2ccc(-c3nc4ccn5c(=O)[nH]nc5c4cc3-c3ccccc3)cc2)CCC1"
  System Under Test: "U2OS"
  Assigned Label: "no (0)"
- Molecule: "CCC(=O)O[C@]1(C(=O)SCF)[C@H](C)C[C@H]2[C@@H]3C[C@H](F)C4=CC(=O)C=C[C@]4(C)[C@@]3(F)[C@@H](O)C[C@@]21C [FLUTICASONE PROPIONATE]"
  System Under Test: "U2OS"
  Assigned Label: "yes (1)"
- Molecule: "COc1cc2c(NC3CCN(C(C)C)CC3)nc(N3CCC(F)(F)CC3)nc2cc1OCCCN1CCCC1"
  System Under Test: "U2OS"
  Assigned Label: "yes (1)"

====

Attribute: Population Pyknosed Nuclei (%)
# Tested on: U2OS
# Assay Text: Multiplex assay against U2OS
# Format: toxicity, cell-based
# Condition Parameters: human, 12 h, 10 µM, compound concentration 10 uM, replicate 2
Experimental Endpoint: Population Pyknosed Nuclei (%)

- Molecule: "CCC(=O)O[C@]1(C(=O)SCF)[C@H](C)C[C@H]2[C@@H]3C[C@H](F)C4=CC(=O)C=C[C@]4(C)[C@@]3(F)[C@@H](O)C[C@@]21C [FLUTICASONE PROPIONATE]"
  System Under Test: "U2OS"
  Experimental Endpoint: "Population Pyknosed Nuclei (%)"
  Measured Result: 10
- Molecule: "CCc1cc2c(cc1CC)CC(NC[C@H](O)c1ccc(O)c3[nH]c(=O)ccc13)C2 [INDACATEROL]"
  System Under Test: "U2OS"
  Experimental Endpoint: "Population Pyknosed Nuclei (%)"
  Measured Result: 19
- Molecule: "Cc1nc(Cc2cccc(C(F)(F)F)c2)sc1-c1ccc(C(N)=O)nc1 [TP-024n]"
  System Under Test: "U2OS"
  Experimental Endpoint: "Population Pyknosed Nuclei (%)"
  Measured Result: 14
- Molecule: "CCCn1c(=O)c2[nH]c(C34CC5CC(CC3C5)C4)nc2n(CCC)c1=O [ROLOFYLLINE]"
  System Under Test: "U2OS"
  Experimental Endpoint: "Population Pyknosed Nuclei (%)"
  Measured Result: 12
- Molecule: "CCn1c(-c2nonc2N)nc2cnc(Oc3cccc(NC(=O)c4ccc(OCCN5CCOCC5)cc4)c3)cc21 [GSK-269962A]"
  System Under Test: "U2OS"
  Experimental Endpoint: "Population Pyknosed Nuclei (%)"
  Measured Result: 22
- Molecule: "N#Cc1cnc(Nc2cc(NC[C@H]3CNCCO3)c(C(F)(F)F)cn2)cn1 [SRA-737]"
  System Under Test: "U2OS"
  Experimental Endpoint: "Population Pyknosed Nuclei (%)"
  Measured Result: 10

====

# System: Fibroblast
# Assay Text: Incucyte cell viability with human fibroblast; also: filed as whole numbers so only -1 and 0 and 1 occur
# Assay type: toxicity, cell-based
# Condition Parameters: 24 h, 10 µM, compound concentration 10 uM, replicate number 2, timepoint 24 hours

- Compound: "c1ccc2oc(-c3csc(C4CCN(Cc5nc6ncccc6[nH]5)CC4)n3)cc2c1"
  System Under Test: "Fibroblast"
  Growth Rate: 1
- Compound: "Cc1c(Oc2ccc(F)cc2)c(OC(C)C)nn1-c1ccc(C2CC2)cn1 [IPP/CNRS-A019]"
  System Under Test: "Fibroblast"
  Growth Rate: 1
- Compound: "CCNC(=O)c1cc2c(N3CCOC[C@@H]3C)ccnc2[nH]1"
  System Under Test: "Fibroblast"
  Growth Rate: 0
- Compound: "CCOC(=O)c1cc(C#N)c(N2CCC(C(=O)NS(=O)(=O)Cc3ccccc3)CC2)nc1C"
  System Under Test: "Fibroblast"
  Growth Rate: 0
- Compound: "N#Cc1cnc(Nc2cc(NC[C@H]3CNCCO3)c(C(F)(F)F)cn2)cn1 [SRA-737]"
  System Under Test: "Fibroblast"
  Growth Rate: 1

====

# System: Fibroblast
# Assay Text: Multiplex assay against human fibroblast
# Type: toxicity, cell-based
# Condition Parameters: 24 h, 10 µM, compound concentration 10 uM, replicate 2
Attribute: Total Cell Count

- Compound: "CCc1cc2c(cc1CC)CC(NC[C@H](O)c1ccc(O)c3[nH]c(=O)ccc13)C2"
  Total Cell Count: 78
- Compound: "CNc1oc(-c2cccc3ccccc23)nc1C#N"
  Total Cell Count: 116
- Compound: "CC(C)(C)c1cnc(CSc2cnc(NC(=O)C3CCNCC3)s2)o1"
  Total Cell Count: 63
- Compound: "COc1ccc(NS(=O)(=O)c2sc3ccc(Cl)cc3c2C)cc1N1CCNCC1.Cl"
  Total Cell Count: 51
- Compound: "Cc1nc(Cc2cccc(C(F)(F)F)c2)sc1-c1ccc(C(N)=O)nc1 [TP-024n]"
  Total Cell Count: 60
- Compound: "c1ccc2oc(-c3csc(C4CCN(Cc5nc6ncccc6[nH]5)CC4)n3)cc2c1"
  Total Cell Count: 67
- Compound: "Nc1nc2c(c(N3CCNCC3)n1)CCC1=C2[C@@H]2CCCC[C@@H]2O1"
  Total Cell Count: 109
- Compound: "Cl.Cl.NC1(c2ccc(-c3nc4ccn5c(=O)[nH]nc5c4cc3-c3ccccc3)cc2)CCC1"
  Total Cell Count: 97
- Compound: "COc1cc2c(NC3CCN(C(C)C)CC3)nc(N3CCC(F)(F)CC3)nc2cc1OCCCN1CCCC1"
  Total Cell Count: 112
- Compound: "Cc1cn(-c2cc(NC(=O)c3ccc4c(c3)CN(c3cncnc3)C[C@@H]4C)cc(C(F)(F)F)c2)cn1"
  Total Cell Count: 85
- Compound: "Cc1cc2c(cc1N1C(=O)c3cccc4c(CCCO)ccc(c34)C1=O)n(C)c(=O)n2C"
  Total Cell Count: 61
- Compound: "O=C(O)c1ccc2cc(-c3ccc(O)c(C45CC6CC(CC(C6)C4)C5)c3)ccc2c1"
  Total Cell Count: 83
- Compound: "CCC(=O)O[C@]1(C(=O)SCF)[C@H](C)C[C@H]2[C@@H]3C[C@H](F)C4=CC(=O)C=C[C@]4(C)[C@@]3(F)[C@@H](O)C[C@@]21C [FLUTICASONE PROPIONATE]"
  Total Cell Count: 59
- Compound: "COc1cc2c(Nc3ccc(NC(=O)c4ccccc4)cc3)ncnc2cc1OCCCN1CCOCC1"
  Total Cell Count: 77
